ASSAY OVERVIEW: pKa measurement of unformulated amine lipid (fluorescence, method of Jayaraman et al.)
Type: physicochemical
CONDITION SUMMARY: 100 μM in 0.1 M phosphate buffer, pH 2.0-12.0
Description: The pKa of each amine lipid was determined according to the method in Jayaraman, et al. (Angewandte Chemie, 2012) with the following adaptations. […] Lipid was diluted to 100 μM in 0.1 M phosphate buffer (Boston Bioproducts) where the pH ranged from 2.0-12.0. Fluorescence intensity was measured using excitation and emission wavelengths of 321 nm and 448 nm.
QUANTITY MEASURED: pKa

Enquiry: Input CCCCCCCCCCOC(=O)CCCCCCCC(=O)OCC(COC(=O)CCC(OCCCCCCC)OCCCCCCC)COC(=O)OCCCN(CC)CC (stereo not drawn) , output reported pKa.
Return: 6.11

Enquiry: Please report the measured pKa for CCCCCCCCCCOC(=O)CCCCCCCC(=O)OCC(COC(=O)CCCC(=O)OC(CCCCCCCC)CCCCCCCC)COC(=O)OCCC1CCCN1C (stereo not drawn)
Return: 6.52

Enquiry: Specify reported pKa for the compound shown: CCCCC/C=C\C/C=C\CCCCCCCC(=O)OCC(COC(=O)CCC(OCCCCCCCC)OCCCCCCCC)COC(=O)NCCN1CCCCCC1 (stereo not drawn)
Return: 7

Data provenance: patent US20220402862A1
